compounds and their reported Ki
# Experimental System: CDK6/D3 (Homo sapiens)
# Sequence (Q00534 whole entry, species assumed): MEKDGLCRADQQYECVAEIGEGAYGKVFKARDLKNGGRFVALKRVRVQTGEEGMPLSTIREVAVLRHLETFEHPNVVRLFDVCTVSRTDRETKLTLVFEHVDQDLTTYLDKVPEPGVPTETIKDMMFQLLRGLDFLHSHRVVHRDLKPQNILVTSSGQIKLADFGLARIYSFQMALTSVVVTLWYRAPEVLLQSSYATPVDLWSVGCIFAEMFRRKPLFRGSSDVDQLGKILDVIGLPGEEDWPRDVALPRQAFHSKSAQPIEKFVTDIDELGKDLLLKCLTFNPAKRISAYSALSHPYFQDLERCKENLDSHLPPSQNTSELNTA
# Sequence (P30281 whole entry partner, species assumed): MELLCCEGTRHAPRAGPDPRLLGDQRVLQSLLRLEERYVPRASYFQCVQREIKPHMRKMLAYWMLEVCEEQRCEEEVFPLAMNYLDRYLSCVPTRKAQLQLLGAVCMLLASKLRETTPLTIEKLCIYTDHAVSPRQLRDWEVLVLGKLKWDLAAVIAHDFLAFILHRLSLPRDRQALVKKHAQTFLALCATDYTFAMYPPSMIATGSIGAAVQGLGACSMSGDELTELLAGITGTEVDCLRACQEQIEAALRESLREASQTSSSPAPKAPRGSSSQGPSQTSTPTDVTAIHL
# Assay Overview: ADP Glo kinase assay, CDK6/D3
# Experimental Context: CDK6D3; apparent Ki calculated from Km (ATP) and IC50; read-out: CDK inhibition Ki
Assay Endpoint: Ki

[[record]]
smiles_string = "CC(=O)N1CCN(c2ccc(Nc3nccc(-c4cnc5ccc(C(F)(F)F)cn45)n3)nc2)CC1"
result = "> 5 µM"

[[record]]
smiles_string = "CC(=O)N1CCN(c2ccc(Nc3nccc(-c4cnc5ccccn45)n3)nc2)CC1"
result = "> 10 µM"

[[record]]
smiles_string = "c1ccn2c(-c3ccnc(Nc4ccc(N5CCNCC5)cn4)n3)cnc2c1"
result = "0.9 µM"

[[record]]
smiles_string = "c1ccc(Nc2nccc(-c3cnc4ccccn34)n2)nc1"
result = "0.37 µM"

[[record]]
smiles_string = "CC(=O)N1CCN(c2ccc(Nc3nccc(-c4cnc5ccc(C)cn45)n3)nc2)CC1"
result = "2.4 µM"

[[record]]
smiles_string = "CN1CCN(c2ccc(Nc3nccc(-c4cnc5ccccn45)n3)nc2)CC1"
result = "1.05 µM"

[[record]]
smiles_string = "c1ccn2c(-c3ccnc(Nc4ccc(N5CCOCC5)cn4)n3)cnc2c1"
result = "2.9 µM"


* * *

# Experimental System: CDK4/D1 (Homo sapiens, UniProt P11802)
# Sequence (P11802 whole entry, species assumed): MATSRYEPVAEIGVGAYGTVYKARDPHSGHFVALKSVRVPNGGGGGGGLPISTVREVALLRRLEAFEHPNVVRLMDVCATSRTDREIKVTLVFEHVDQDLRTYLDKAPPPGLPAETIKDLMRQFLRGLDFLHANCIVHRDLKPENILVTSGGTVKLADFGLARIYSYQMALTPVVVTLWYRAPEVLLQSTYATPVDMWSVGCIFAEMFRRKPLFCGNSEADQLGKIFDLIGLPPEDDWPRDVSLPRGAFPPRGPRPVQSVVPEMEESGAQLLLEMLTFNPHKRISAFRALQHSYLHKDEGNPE
# Sequence (P24385 whole entry partner, species assumed): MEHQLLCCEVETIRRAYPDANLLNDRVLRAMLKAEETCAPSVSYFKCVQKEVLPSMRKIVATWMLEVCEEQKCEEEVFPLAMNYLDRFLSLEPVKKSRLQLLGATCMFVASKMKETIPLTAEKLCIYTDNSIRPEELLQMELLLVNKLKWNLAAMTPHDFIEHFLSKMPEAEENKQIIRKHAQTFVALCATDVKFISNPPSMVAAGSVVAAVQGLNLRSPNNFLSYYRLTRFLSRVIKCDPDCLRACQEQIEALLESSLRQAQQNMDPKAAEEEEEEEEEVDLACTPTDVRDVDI
# Assay Overview: ADP Glo kinase assay, CDK4/D1
# Type: biochemical
# Experimental Context: CDK4D1; compound at 10 μM; read-out: residual enzymatic activity (%) at 10 μM
Assay Endpoint: remaining activity at 10 µM (%)

[[record]]
compound = "CC(=O)N1CCN(c2ccc(Nc3nccc(-c4cnc5ccc(-c6cccnc6)cn45)n3)nc2)CC1 [Cmpd 15]"
experimental_system = "CDK4/D1 (Homo sapiens, UniProt P11802)"
measured_number = 77

[[record]]
compound = "CC(=O)N1CCN(c2ccc(Nc3nccc(-c4cnc5ccc(-c6cc[nH]c6)cn45)n3)nc2)CC1 [Cmpd 23]"
experimental_system = "CDK4/D1 (Homo sapiens, UniProt P11802)"
measured_number = 50

[[record]]
compound = "COc1ncc(-c2ccc3ncc(-c4ccnc(Nc5ccc(N6CCN(C(C)=O)CC6)cn5)n4)n3c2)cn1 [Cmpd 19]"
experimental_system = "CDK4/D1 (Homo sapiens, UniProt P11802)"
measured_number = 53

[[record]]
compound = "c1ccn2c(-c3ccnc(Nc4ccc(N5CCOCC5)cn4)n3)cnc2c1 [Cmpd 4]"
experimental_system = "CDK4/D1 (Homo sapiens, UniProt P11802)"
measured_number = 38


* * *

compounds and their reported activity
# Experimental System: CDK1B (Homo sapiens)
# Sequence (P06493 whole entry): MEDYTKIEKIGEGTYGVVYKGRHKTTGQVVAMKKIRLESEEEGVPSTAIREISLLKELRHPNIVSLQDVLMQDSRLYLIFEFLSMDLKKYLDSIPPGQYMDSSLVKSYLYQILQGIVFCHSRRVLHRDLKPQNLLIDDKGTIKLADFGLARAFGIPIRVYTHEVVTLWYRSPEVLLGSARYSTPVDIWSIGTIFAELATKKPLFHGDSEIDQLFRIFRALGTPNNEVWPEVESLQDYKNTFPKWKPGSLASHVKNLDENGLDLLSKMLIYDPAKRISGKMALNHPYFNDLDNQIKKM
# Sequence (P14635 whole entry partner): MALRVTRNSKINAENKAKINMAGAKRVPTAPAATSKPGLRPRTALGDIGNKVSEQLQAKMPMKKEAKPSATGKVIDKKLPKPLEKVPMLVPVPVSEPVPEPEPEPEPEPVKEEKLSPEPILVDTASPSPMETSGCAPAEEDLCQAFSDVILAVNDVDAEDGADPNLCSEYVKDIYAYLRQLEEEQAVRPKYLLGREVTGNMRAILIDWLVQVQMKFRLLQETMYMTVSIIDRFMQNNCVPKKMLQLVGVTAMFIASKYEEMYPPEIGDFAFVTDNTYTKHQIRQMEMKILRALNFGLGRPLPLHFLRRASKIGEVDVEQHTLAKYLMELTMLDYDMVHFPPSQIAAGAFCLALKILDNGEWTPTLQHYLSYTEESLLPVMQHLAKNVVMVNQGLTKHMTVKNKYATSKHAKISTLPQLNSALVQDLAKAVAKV
# Experimental Context: 10 µM
Assay Endpoint: activity (%)

[[record]]
compound = "CC(=O)N1CCN(c2ccc(Nc3nccc(-c4cnc5ccc(-c6ccco6)cn45)n3)nc2)CC1 [Cmpd 12]"
measure_unit = "%"
measured_number = 70

[[record]]
compound = "CC(=O)N1CCN(c2ccc(Nc3nccc(-c4cnc5ccc(-c6cnc(N7CCN(C)CC7)nc6)cn45)n3)nc2)CC1 [Cmpd 20]"
measure_unit = "%"
measured_number = 100

[[record]]
compound = "CC(=O)N1CCCN(c2ccc(Nc3nccc(-c4cnc5ccccn45)n3)nc2)CC1 [Cmpd 6]"
measure_unit = "%"
measured_number = 50

[[record]]
compound = "CC(=O)N1CCN(c2ccc(Nc3nccc(-c4cnc5ccc(-c6cc7ccccc7s6)cn45)n3)nc2)CC1 [Cmpd 22]"
measure_unit = "%"
measured_number = 100

[[record]]
compound = "CC(=O)N1CCN(c2ccc(Nc3nccc(-c4cnc5ccc(-c6cncnc6)cn45)n3)nc2)CC1 [Cmpd 16]"
measure_unit = "%"
measured_number = 81

[[record]]
compound = "CC(=O)N1CCN(c2ccc(Nc3nccc(-c4cnc5ccc(-c6ccccc6)cn45)n3)nc2)CC1 [Cmpd 14]"
measure_unit = "%"
measured_number = 94

[[record]]
compound = "CC(=O)N1CCN(c2ccc(Nc3nccc(-c4cnc5ccc(-c6cc[nH]c6)cn45)n3)nc2)CC1 [Cmpd 23]"
measure_unit = "%"
measured_number = 59

[[record]]
compound = "CC(=O)N1CCN(c2ccc(Nc3nccc(-c4cnc5ccc(Br)cn45)n3)nc2)CC1 [Cmpd 10]"
measure_unit = "%"
measured_number = 41

[[record]]
compound = "c1ccn2c(-c3ccnc(Nc4ccc(N5CCCCC5)cn4)n3)cnc2c1 [Cmpd 5]"
measure_unit = "%"
measured_number = 48

[[record]]
compound = "CC(=O)N1CCN(c2ccc(Nc3nccc(-c4cnc5ccc(F)cn45)n3)nc2)CC1 [Cmpd 8]"
measure_unit = "%"
measured_number = 27

[[record]]
compound = "CC(=O)N1CCN(c2ccc(Nc3nccc(-c4cnc5ccc(-c6cn[nH]c6)cn45)n3)nc2)CC1 [Cmpd 24]"
measure_unit = "%"
measured_number = 35

[[record]]
compound = "CC(=O)N1CCN(c2ccc(Nc3nccc(-c4cnc5ccc(Cl)cn45)n3)nc2)CC1 [Cmpd 9]"
measure_unit = "%"
measured_number = 94

[[record]]
compound = "CC(=O)N1CCN(c2ccc(Nc3nccc(-c4cnc5ccc(-c6cnc(N)nc6)cn45)n3)nc2)CC1 [Cmpd 18]"
measure_unit = "%"
measured_number = 69

[[record]]
compound = "CC(=O)N1CCN(c2ccc(Nc3nccc(-c4cnc5ccc(C(F)(F)F)cn45)n3)nc2)CC1 [Cmpd 11]"
measure_unit = "%"
measured_number = 38

[[record]]
compound = "COc1ncc(-c2ccc3ncc(-c4ccnc(Nc5ccc(N6CCN(C(C)=O)CC6)cn5)n4)n3c2)cn1 [Cmpd 19]"
measure_unit = "%"
measured_number = 96

[[record]]
compound = "CC(=O)N1CCN(c2ccc(Nc3nccc(-c4cnc5ccc(-c6cc7ccccc7o6)cn45)n3)nc2)CC1 [Cmpd 21]"
measure_unit = "%"
measured_number = 95

[[record]]
compound = "CC(=O)N1CCN(c2ccc(Nc3nccc(-c4cnc5ccc(-c6cccnc6)cn45)n3)nc2)CC1 [Cmpd 15]"
measure_unit = "%"
measured_number = 64


* * *

# Experimental System: CDK4/D1 (Homo sapiens, UniProt P11802)
# Assay Overview: ADP Glo kinase assay, CDK4/D1
# Assay type: biochemical
# Experimental Context: CDK4D1; compound at 1 μM (values marked *); read-out: residual enzymatic activity (%) at 1 μM*
Assay Endpoint: remaining activity at 1 µM (%)

[[record]]
compound = "CC(=O)N1CCN(c2ccc(Nc3ncc(F)c(-c4cnc5ccc(C)cn45)n3)nc2)CC1 [Cmpd 31]"
experimental_system = "CDK4/D1 (Homo sapiens, UniProt P11802)"
assay_endpoint = "remaining activity at 1 µM"
measured_number = 37

[[record]]
compound = "CC(=O)N1CCN(c2ccc(Nc3nccc(-c4cnc5ccc(-c6c[nH]c7ccccc67)cn45)n3)nc2)CC1 [Cmpd 41]"
experimental_system = "CDK4/D1 (Homo sapiens, UniProt P11802)"
assay_endpoint = "remaining activity at 1 µM"
measured_number = 54

[[record]]
compound = "CC(=O)N1CCN(c2ccc(Nc3ncc(F)c(-c4cnc5ccc(F)cn45)n3)nc2)CC1 [Cmpd 30]"
experimental_system = "CDK4/D1 (Homo sapiens, UniProt P11802)"
assay_endpoint = "remaining activity at 1 µM"
measured_number = 55

[[record]]
compound = "CC(=O)N1CCN(c2ccc(Nc3nccc(-c4cnc5ccc(I)cn45)n3)nc2)CC1 [Cmpd 43]"
experimental_system = "CDK4/D1 (Homo sapiens, UniProt P11802)"
assay_endpoint = "remaining activity at 1 µM"
measured_number = 70

[[record]]
compound = "CC(=O)N1CCN(c2ccc(Nc3nccc(-c4cnc5ccc(-c6cn(S(=O)(=O)c7ccccc7)c7ccccc67)cn45)n3)nc2)CC1 [Cmpd 34]"
experimental_system = "CDK4/D1 (Homo sapiens, UniProt P11802)"
assay_endpoint = "remaining activity at 1 µM"
measured_number = 55

[[record]]
compound = "CC(=O)N1CCN(c2ccc(Nc3nccc(-c4cnc5ccc(Nc6ccccc6)cn45)n3)nc2)CC1 [Cmpd 28]"
experimental_system = "CDK4/D1 (Homo sapiens, UniProt P11802)"
assay_endpoint = "remaining activity at 1 µM"
measured_number = 77

[[record]]
compound = "CC(=O)N1CCN(c2ccc(Nc3nccc(-c4cnc5ccc(-c6cn(S(=O)(=O)c7ccccc7)c7ncccc67)cn45)n3)nc2)CC1 [Cmpd 38]"
experimental_system = "CDK4/D1 (Homo sapiens, UniProt P11802)"
assay_endpoint = "remaining activity at 1 µM"
measured_number = 70


* * *

compounds and their reported remaining activity at 1 µM
# Experimental System: FLT3(WT) (Homo sapiens, UniProt P36888)
# Sequence (P36888 27-993): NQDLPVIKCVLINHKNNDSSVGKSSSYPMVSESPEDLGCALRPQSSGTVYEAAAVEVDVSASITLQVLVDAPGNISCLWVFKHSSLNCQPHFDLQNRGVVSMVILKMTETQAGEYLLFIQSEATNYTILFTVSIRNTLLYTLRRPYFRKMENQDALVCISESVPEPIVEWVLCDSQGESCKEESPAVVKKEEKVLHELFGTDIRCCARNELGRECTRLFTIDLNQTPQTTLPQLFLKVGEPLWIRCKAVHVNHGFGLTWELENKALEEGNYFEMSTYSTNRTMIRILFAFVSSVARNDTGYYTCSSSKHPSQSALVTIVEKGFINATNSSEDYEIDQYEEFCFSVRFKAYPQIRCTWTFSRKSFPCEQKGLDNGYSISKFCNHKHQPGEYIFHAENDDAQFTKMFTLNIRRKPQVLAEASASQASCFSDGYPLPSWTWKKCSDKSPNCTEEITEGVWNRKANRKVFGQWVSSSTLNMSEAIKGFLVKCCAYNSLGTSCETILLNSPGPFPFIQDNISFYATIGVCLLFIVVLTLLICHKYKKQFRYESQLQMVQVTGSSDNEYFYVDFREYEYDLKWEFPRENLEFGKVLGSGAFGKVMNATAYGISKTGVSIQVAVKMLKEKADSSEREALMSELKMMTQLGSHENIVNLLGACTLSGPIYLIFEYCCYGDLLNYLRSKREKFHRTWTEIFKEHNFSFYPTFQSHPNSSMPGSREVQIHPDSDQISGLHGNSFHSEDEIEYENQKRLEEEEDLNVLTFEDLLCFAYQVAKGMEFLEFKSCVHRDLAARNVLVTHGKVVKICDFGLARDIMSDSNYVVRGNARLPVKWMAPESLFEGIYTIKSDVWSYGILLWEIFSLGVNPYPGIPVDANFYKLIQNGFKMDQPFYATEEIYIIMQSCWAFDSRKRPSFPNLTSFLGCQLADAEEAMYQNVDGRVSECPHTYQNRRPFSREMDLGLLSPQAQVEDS
# Assay Overview: ADP Glo kinase assay, FLT3(WT)
# Assay type: biochemical
# Experimental Context: compound at 1 μM, read-out: residual enzymatic activity (%) at 1 μM
Assay Endpoint: remaining activity at 1 µM

[[record]]
smiles_string = "CC(=O)N1CCN(c2ccc(Nc3nccc(-c4cnc5ccc(-c6cncnc6)cn45)n3)nc2)CC1"
experimental_system = "FLT3(WT) (Homo sapiens, UniProt P36888)"
result = "23%"

[[record]]
smiles_string = "c1ccc(Nc2nccc(-c3cnc4ccccn34)n2)nc1"
experimental_system = "FLT3(WT) (Homo sapiens, UniProt P36888)"
result = "34%"

[[record]]
smiles_string = "CC(=O)N1CCN(c2ccc(Nc3nccc(-c4cnc5ccc(-c6cnc(N7CCN(C)CC7)nc6)cn45)n3)nc2)CC1"
experimental_system = "FLT3(WT) (Homo sapiens, UniProt P36888)"
result = "36%"

[[record]]
smiles_string = "CN1CCN(c2ccc(Nc3nccc(-c4cnc5ccccn45)n3)nc2)CC1"
experimental_system = "FLT3(WT) (Homo sapiens, UniProt P36888)"
result = "33%"

[[record]]
smiles_string = "c1ccn2c(-c3ccnc(Nc4ccc(N5CCCCC5)cn4)n3)cnc2c1"
experimental_system = "FLT3(WT) (Homo sapiens, UniProt P36888)"
result = "45%"


// provenance: patent US12398132B2
